targetDesc: CDK2E (Homo sapiens, UniProt P24941)
assaySummary: CDK 2/Cyclin E Kinase Assay
assayContext: ATP 30 μM; CDK2E 0.2 nM; Caliper LabChip 3000
assayReadout: pIC50
In plain terms, pIC50 is the concentration in mol/L turned into minus its base-10 logarithm.

Sample records with pIC50:
- molecule: "O=C(c1ccc(F)nc1)N1CCC[C@H]1c1nc(Nc2cc(C3CC3)[nH]n2)c2cccn2n1 [Example 1]"
  targetDesc: "CDK2E (Homo sapiens, UniProt P24941)"
  recordedResult: 5.73
- molecule: "O=C(c1nccs1)N1CCC[C@@H]1c1nc(Nc2cc(C3CC3)[nH]n2)c2cccn2n1 [Example 15]"
  targetDesc: "CDK2E (Homo sapiens, UniProt P24941)"
  recordedResult: 6.79
- molecule: "O=C(c1cc[nH]n1)N1CCC[C@H]1c1nc(Nc2cc(C3CC3)[nH]n2)c2cccn2n1 [Example 7]"
  targetDesc: "CDK2E (Homo sapiens, UniProt P24941)"
  recordedResult: 7.27

Problem: Fill in the blank: the reported pIC50 of O=C(C1CCNCC1)N1CCC[C@H]1c1nc(Nc2cc(C3CC3)[nH]n2)c2cccn2n1 [Example 6] is ____.
Result: 6.21

Problem: Query: pIC50; subject: O=C(c1nccs1)N1CCC[C@H]1c1nc(Nc2cc(C3CC3)[nH]n2)c2cccn2n1 [Example 2]
Result: 7.06

Problem: Find the recorded pIC50 belonging to CC(=O)N1CCC[C@H]1c1nc(Nc2cc(C3CC3)[nH]n2)c2cccn2n1 [Example 4] and report it.
Result: 8.30

Problem: Which pIC50 value belongs to O=C(c1cnccn1)N1CCC[C@@H]1c1nc(Nc2cc(C3CC3)[nH]n2)c2cccn2n1 [Example 12] ?
Result: 6.59

Problem: Give the measured pIC50 of CC(C)(C)OC(=O)N1CCC(C(=O)N2CCC[C@@H]2c2nc(Nc3cc(C4CC4)[nH]n3)c3cccn3n2)CC1 [Example 13] .
Result: 4.76

###

targetDesc: JAK2 (Homo sapiens)
Sequence (O60674 whole entry): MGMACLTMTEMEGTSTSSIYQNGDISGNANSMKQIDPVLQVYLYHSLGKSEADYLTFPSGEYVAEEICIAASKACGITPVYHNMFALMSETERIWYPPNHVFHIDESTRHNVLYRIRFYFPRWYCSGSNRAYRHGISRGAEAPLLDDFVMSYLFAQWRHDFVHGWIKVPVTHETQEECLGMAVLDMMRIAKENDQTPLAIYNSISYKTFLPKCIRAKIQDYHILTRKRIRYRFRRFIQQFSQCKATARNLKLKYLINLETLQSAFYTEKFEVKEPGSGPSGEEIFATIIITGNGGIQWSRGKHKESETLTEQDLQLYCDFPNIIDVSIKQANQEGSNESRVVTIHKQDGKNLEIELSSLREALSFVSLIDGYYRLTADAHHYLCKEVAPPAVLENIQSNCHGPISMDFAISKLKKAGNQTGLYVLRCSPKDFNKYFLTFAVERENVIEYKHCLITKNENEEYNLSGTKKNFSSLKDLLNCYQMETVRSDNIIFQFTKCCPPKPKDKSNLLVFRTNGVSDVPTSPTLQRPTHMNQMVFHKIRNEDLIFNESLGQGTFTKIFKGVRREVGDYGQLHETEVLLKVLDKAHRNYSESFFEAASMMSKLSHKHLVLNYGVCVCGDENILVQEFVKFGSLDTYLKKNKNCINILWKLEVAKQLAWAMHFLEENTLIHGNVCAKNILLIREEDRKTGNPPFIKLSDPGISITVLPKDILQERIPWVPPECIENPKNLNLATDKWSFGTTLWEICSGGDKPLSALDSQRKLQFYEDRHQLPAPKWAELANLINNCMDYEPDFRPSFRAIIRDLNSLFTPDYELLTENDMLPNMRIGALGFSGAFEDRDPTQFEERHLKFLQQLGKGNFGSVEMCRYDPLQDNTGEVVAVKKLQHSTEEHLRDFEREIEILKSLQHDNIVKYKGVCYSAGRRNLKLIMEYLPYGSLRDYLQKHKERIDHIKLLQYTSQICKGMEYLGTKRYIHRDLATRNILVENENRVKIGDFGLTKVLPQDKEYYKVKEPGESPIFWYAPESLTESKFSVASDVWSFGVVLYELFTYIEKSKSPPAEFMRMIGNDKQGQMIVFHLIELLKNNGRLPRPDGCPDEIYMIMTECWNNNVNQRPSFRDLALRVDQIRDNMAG
assaySummary: JAK2 kinase assay
assayContext: ATP 30 μM; activated JAK2; Caliper LabChip 3000
Hi! Just check whether IC50 is below 4 µM. Below gives true, equal or above gives false.

Worked set:
- recordSmiles: "O=C(c1nccs1)N1CCC[C@@H]1c1nc(Nc2cc(C3CC3)[nH]n2)c2cccn2n1"
  category: "true"
- recordSmiles: "CC(C)(C)OC(=O)N1CCC(C(=O)N2CCC[C@@H]2c2nc(Nc3cc(C4CC4)[nH]n3)c3cccn3n2)CC1"
  category: "false"
- recordSmiles: "O=C(c1cnccn1)N1CCC[C@@H]1c1nc(Nc2cc(C3CC3)[nH]n2)c2cccn2n1"
  category: "false"
- recordSmiles: "O=C(c1cc[nH]n1)N1CCC[C@H]1c1nc(Nc2cc(C3CC3)[nH]n2)c2cccn2n1"
  category: "true"

Problem: Please determine if O=C(C1CCNCC1)N1CCC[C@H]1c1nc(Nc2cc(C3CC3)[nH]n2)c2cccn2n1 is below 4 µM in terms of IC50.
Result: false

###

Reported pIC50 by item:
targetDesc: GST-Met (Homo sapiens)
Sequence (P08581 25-1390): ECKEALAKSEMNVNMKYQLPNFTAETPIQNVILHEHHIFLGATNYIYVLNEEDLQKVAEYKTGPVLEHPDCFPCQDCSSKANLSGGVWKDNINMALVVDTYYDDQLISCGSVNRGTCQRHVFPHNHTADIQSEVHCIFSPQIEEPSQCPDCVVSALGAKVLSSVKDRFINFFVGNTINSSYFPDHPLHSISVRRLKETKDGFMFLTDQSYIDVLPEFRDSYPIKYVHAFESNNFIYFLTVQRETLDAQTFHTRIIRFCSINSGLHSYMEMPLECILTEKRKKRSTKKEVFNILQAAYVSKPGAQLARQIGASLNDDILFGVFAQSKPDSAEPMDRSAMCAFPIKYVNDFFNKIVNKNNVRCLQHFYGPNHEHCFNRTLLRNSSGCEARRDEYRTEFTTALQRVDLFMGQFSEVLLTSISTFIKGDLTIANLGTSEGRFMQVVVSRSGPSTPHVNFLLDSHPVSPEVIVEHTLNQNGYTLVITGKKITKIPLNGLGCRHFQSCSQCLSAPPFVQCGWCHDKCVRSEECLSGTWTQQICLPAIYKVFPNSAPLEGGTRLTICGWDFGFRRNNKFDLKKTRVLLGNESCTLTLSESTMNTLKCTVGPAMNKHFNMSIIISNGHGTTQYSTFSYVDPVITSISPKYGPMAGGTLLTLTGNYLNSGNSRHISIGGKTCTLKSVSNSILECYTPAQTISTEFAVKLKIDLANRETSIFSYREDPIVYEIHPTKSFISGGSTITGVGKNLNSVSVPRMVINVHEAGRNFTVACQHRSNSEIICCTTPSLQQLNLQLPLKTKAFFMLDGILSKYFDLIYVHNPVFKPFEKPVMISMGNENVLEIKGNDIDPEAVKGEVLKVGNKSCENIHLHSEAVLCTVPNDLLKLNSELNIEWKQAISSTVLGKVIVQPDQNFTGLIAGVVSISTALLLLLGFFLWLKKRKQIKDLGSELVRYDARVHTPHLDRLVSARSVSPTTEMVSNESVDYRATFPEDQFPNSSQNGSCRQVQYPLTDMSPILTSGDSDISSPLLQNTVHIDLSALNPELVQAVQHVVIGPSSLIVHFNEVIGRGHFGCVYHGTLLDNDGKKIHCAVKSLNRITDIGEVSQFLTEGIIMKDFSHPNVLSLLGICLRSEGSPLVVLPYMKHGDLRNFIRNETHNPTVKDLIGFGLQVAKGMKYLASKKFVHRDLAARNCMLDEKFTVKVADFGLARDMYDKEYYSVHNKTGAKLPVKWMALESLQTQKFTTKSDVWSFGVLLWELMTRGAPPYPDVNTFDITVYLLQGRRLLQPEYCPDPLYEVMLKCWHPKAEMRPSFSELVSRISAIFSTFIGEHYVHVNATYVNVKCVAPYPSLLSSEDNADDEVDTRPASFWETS
Note on pIC50: it is the negative log10 of concentration, concentration in mol/L.

- recordSmiles: "O=C(c1cnccn1)N1CCC[C@@H]1c1nc(Nc2cc(C3CC3)[nH]n2)c2cccn2n1"
  pIC50: 4.97

Attention now turns to another entry.
Problem: Fill blank: measured pIC50 of the compound O=C(c1ccc(F)nc1)N1CCC[C@H]1c1nc(Nc2cc(C3CC3)[nH]n2)c2cccn2n1 is ____.
Result: 7.55
